studySystem: human mAChR M4 (Homo sapiens, UniProt P08173)
Sequence (P08173 whole entry): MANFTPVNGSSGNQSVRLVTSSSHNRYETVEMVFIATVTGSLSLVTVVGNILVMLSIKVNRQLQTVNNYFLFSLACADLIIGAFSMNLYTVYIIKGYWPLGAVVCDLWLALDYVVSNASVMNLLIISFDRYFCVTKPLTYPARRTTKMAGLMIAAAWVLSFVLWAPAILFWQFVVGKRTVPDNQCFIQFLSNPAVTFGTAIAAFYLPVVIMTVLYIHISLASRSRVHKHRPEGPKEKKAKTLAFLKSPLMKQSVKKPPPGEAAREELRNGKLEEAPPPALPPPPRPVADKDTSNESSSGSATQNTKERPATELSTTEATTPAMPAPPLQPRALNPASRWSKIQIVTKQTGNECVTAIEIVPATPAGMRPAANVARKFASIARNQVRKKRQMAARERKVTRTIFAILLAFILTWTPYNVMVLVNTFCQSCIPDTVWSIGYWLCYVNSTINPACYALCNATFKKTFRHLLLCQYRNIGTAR
assayComment: mAChR M4 cell-based functional assay: calcium mobilization (Fluo-4, FDSS), potentiation of EC20 acetylcholine response in hM4-Gqi5 CHO-K1 cells
measurementSetup: potentiation of EC20 acetylcholine response, calcium mobilization, human M4
endpointName: EC50 (nM)

sampleSmiles: COc1ccsc1-c1cnc2c(c1)CN(c1nn3c(=O)cc(C(F)F)nc3c(C)c1C)CC2
value: 1270

1. Cc1cc2nccc(=O)n2nc1N1CCc2ncc(-c3cnn4c3COCC4)cc2C1
2. Cc1cc2nccc(=O)n2nc1N1CCc2ncc(-c3cn(C)nc3C(F)F)cc2C1
3. Cc1nn(C)c(C)c1-c1cnc2c(c1)CN(c1nn3c(=O)cc(C(F)F)nc3c(C)c1C)CC2
QUERY: Rank the 3 compounds: largest EC50 first, smallest last. As an answer, provide the labels arranged in the order called for.
RESULT: 1, 2, 3

---

studySystem: human mAChR M4 (Homo sapiens)
Construct: expressed in transfected cells; host or cells: CHO-K1 (American Type Culture Collection), stably expressing hM4 and Gqi5
assayComment: mAChR M4 cell-based functional assay: calcium mobilization (Fluo-4, FDSS), potentiation of EC20 acetylcholine response in hM4-Gqi5 CHO-K1 cells
measurementSetup: potentiation of EC20 acetylcholine response, calcium mobilization, human M4
Procedure: […] Calcium flux was measured using the Functional Drug Screening System (FDSS) 6000 or 7000 (Hamamatsu Corporation, Tokyo, Japan) as an increase in the fluorescent static ratio. […] Agonist activity was analyzed as a concentration-dependent increase in calcium mobilization upon compound addition. Positive allosteric modulator activity was analyzed as a concentration-dependent increase in the EC20 acetylcholine response. […]
pEC50: −log10 of the molar value.
endpointName: pEC50

compound: Cc1cc(=O)n2nc(N3CCc4ncc(-c5ccsc5)cc4C3)c(C)c(C)c2n1
pEC50: 6.77
//
compound: Cc1cc(=O)n2nc(N3CCc4ncc(-c5ccccc5C5CC5)cc4C3)c(C)c(C)c2n1
pEC50: 6.07

P. COc1cc(Cl)cc(Nc2cnc3c(c2)CN(c2nn4c(=O)ccnc4cc2C)CC3)c1
Q. Cc1cc(=O)n2nc(N3CCc4ncc(-c5cnn(-c6ccccn6)c5)cc4C3)c(C)c(C)c2n1
R. Cc1cc(=O)n2nc(N3CCc4ncc(-c5ccnn5C)cc4C3)c(C)cc2n1
S. Cc1c(N2CCc3ncc(N4CC(C)(C)CC4=O)cc3C2)nn2c(=O)ccnc2c1C
T. Cc1cc(=O)n2nc(N3CCc4ncc(C(F)(F)F)cc4C3)c(C)c(C)c2n1
QUERY: Rank the 5 compounds: largest pEC50 first, smallest last. As an answer, provide the labels arranged in the order called for.
RESULT: T, R, P, S, Q

A. Cc1ccc(-c2cnc3c(c2)CN(c2nn4c(=O)cc(C)nc4c(C)c2C)CC3)cc1
B. COc1cc(-c2cnc3c(c2)CN(c2nn4c(=O)ccnc4cc2C)CC3)ccc1F
QUERY: I'm curious whether A or B has the smaller pEC50 number. Which is it? Output the label that corresponds to your choice.
RESULT: A
(A: 6.20, B: 6.53)

A. Cc1cc2nccc(=O)n2nc1N1CCc2ncc(-c3ccnn3C(C)C)cc2C1
B. Cc1cc2nccc(=O)n2nc1N1CCc2ncc(NC(=O)c3ncco3)cc2C1
QUERY: I'm curious whether A or B has the smaller pEC50 number. Which is it? Output the label that corresponds to your choice.
RESULT: B
(B: 5.73, A: 6.22)

Ref: patent US20250101041A1
